target: plasmodial PNPase (Plasmodium falciparum, UniProt Q8I3X4); assay: biochemical; settings: Ki*, Plasmodium falciparum PNPase; tighter binding after slow-onset inhibition
Sequence (Q8I3X4 whole entry): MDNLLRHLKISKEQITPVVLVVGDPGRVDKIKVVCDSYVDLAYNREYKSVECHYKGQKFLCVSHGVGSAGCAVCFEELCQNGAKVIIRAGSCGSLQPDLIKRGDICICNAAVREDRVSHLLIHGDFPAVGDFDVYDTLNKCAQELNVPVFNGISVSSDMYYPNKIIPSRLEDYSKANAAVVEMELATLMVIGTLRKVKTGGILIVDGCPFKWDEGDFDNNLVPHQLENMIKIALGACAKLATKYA
Measured Endpoint: Ki

>>> df
                                   compound  measured_endpoint  observed_result
0  O=c1[nH]cnc2c(CN3C[C@@H](CO)[C@H](O)C3)c[nH]c12 [[(−)-10]]                 Ki            80 nM

* * *

Some compounds, each annotated with its measured pKi.
target: UniProt P55859; experiment: biochemical; conditions: Ki*, B. taurus PNPase; tighter binding after slow-onset inhibition
Sequence (P55859 whole entry): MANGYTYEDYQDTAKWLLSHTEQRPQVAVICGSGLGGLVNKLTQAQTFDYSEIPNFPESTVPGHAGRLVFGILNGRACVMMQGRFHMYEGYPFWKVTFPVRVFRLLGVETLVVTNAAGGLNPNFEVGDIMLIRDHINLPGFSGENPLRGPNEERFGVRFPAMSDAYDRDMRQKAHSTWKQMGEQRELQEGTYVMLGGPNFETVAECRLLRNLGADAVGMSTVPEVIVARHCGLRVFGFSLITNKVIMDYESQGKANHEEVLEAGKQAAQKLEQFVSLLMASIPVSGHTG
pKi: −log10 of the molar value.
Measured Endpoint: pKi

In [3]: df
Out[3]:
                                   compound  target_of_assay  measured_endpoint  observed_result
0  O=c1[nH]cnc2c(CN3C[C@@H](CO)[C@H](O)C3)c[nH]c12 [[(−)-10]]   UniProt P55859                pKi             9.30
1  O=c1[nH]cnc2c(CN3C[C@H](CO)[C@@H](O)C3)c[nH]c12 [[(+)-10], reference compound]   UniProt P55859                pKi             9.96

The measured values listed here are drawn from patent US20090325986A1.
